assayed-system: PI3K (p110α/p85α) (Homo sapiens, UniProt P42336)
Construct: purchased Carna Biosciences 07CBS-0402A
Sequence (P42336 whole entry): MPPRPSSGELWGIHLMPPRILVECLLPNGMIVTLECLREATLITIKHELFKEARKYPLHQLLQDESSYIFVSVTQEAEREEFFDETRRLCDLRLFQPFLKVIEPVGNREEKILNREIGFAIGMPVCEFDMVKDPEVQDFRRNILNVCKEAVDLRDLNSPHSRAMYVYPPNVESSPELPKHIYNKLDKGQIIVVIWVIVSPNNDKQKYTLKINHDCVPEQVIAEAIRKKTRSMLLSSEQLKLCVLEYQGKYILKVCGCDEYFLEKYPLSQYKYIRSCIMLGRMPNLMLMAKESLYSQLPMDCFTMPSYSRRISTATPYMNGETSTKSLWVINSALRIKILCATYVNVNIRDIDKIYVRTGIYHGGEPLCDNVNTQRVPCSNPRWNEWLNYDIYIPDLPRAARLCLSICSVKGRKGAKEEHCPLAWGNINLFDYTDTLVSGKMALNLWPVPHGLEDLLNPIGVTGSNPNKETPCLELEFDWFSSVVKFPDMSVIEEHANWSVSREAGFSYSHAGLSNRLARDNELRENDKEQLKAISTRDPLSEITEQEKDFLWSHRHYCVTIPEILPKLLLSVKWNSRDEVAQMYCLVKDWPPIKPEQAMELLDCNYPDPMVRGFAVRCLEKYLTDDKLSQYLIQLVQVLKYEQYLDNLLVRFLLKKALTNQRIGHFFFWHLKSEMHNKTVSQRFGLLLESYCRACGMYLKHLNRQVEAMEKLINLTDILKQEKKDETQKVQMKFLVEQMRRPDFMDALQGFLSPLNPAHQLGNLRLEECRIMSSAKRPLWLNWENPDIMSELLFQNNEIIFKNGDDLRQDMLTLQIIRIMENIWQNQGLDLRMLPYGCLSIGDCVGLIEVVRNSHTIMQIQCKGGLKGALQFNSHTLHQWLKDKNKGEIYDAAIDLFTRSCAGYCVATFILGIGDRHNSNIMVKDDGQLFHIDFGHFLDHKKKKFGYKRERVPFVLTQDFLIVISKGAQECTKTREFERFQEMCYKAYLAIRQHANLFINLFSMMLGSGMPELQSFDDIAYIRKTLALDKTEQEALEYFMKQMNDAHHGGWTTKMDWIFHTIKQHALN
Sequence (P27986 whole entry partner): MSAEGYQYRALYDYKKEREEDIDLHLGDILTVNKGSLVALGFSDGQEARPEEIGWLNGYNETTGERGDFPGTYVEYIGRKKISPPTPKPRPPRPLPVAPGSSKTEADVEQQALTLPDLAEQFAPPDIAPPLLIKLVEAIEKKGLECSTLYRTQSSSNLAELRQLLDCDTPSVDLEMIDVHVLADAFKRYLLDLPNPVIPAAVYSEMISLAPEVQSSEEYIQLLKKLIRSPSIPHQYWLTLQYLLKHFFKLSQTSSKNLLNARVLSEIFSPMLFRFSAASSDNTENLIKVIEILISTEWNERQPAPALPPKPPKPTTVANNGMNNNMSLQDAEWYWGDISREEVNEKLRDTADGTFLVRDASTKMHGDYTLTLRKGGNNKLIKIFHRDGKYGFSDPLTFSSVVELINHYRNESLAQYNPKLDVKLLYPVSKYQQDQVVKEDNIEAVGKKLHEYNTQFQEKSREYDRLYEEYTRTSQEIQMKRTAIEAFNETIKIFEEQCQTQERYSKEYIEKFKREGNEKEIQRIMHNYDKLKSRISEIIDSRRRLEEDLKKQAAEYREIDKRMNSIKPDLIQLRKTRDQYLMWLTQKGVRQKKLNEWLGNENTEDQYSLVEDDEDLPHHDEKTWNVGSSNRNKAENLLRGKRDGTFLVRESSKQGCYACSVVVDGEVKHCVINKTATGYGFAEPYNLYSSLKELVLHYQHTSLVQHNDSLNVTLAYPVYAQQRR
test-method-notes: PI3K Activity Assay (ADP Hunter Plus)
Format: biochemical
measurement-context: PI3Kα activity, quantitative results; read-out: PI3Kα IC50
pIC50: −log10 of the molar value.
# if value of pIC50 reaches 7, tag class 1; if it stays below, tag class 0

1) Nc1ncc(-c2cn3cc(C4CC4)nc3c(N3CCOCC3)n2)cn1 [2-171]; class 1
2) C[C@@H]1CN(S(C)(=O)=O)C[C@H](C)N1Cc1cn2cc(-c3cnc(N)nc3)nc(N3CCOCC3)c2n1 [2-219]; class 1
3) COC(=O)C1COCCN1c1nc(-c2cnc(N)nc2)cn2cc(C)nc12 (centres unmarked) [2-227]; class 0
4) CNc1ncc(-c2nc(N3CCOCC3)c3nc(CN4CCN(S(C)(=O)=O)CC4)cn3c2Cl)cn1 [2-207]; class 1
5) Cc1nc(N)ncc1-c1cn2cc(CN3CCN(S(C)(=O)=O)CC3)nc2c(N2CCOCC2)n1 [2-200]; class 1
6) CS(=O)(=O)N1CCN(Cc2nc3c(N4CCOCC4)nc(-c4cccc5[nH]ncc45)cn3c2Br)CC1 [2-183]; class 0
7) CCS(=O)(=O)N1CCN(Cc2cn3cc(-c4cnc(N)nc4)nc(N4CCOCC4)c3n2)CC1 [2-220]; class 1
8) CCOC(=O)N1CCC(NC(=O)c2cn3cc(-c4cccc5[nH]ncc45)nc(N4CCOCC4)c3n2)CC1 [2-182]; class 0
9) CC(C)CS(=O)(=O)N1CCN(Cc2cn3cc(-c4cnc(N)nc4)nc(N4CCOCC4)c3n2)CC1 [2-221]; class 1
10) Nc1ncc(-c2cn3cc(C(=O)N[C@H]4CC[C@H](O)CC4)nc3c(N3CCOCC3)n2)cn1 [2-192]; class 1
11) Cc1ncc(-c2cn3cc(CN4CCN(S(C)(=O)=O)CC4)nc3c(N3CCOCC3)n2)cn1 [2-196]; class 1
12) Nc1ncc(-c2cn3cc(C(F)(F)F)nc3c(N3CCOCC3)n2)cn1 [2-172]; class 1

From: patent US8778935B2
